protein stability index values, listed per item
- System: Saccharomyces cerevisiae
- experiment_description: protein stability index of tFT-peptide fusion (C-terminal peptide) (PSI (0-1 scale)); higher = more stable (slower turnover)
- measurement_context: genetic background: das1 deletion; temperature: 30 C
Just the number, please.

>>> val("GDENFVILEFEC [OAZ1 C-terminal 12 aa]")
0.7

stdin: State its protein stability index for this sequence: IHSGYTNISYTI [MCM16 C-terminal 12 aa]
stdout: 0.709

stdin: State its protein stability index for this sequence: FCMGVAAFVTTA [UTP21 C-terminal 12 aa]
stdout: 0.493

stdin: State its protein stability index for this sequence: AYLLFYTIRQVN [UBP8 C-terminal 12 aa]
stdout: 0.366

stdin: State its protein stability index for this sequence: LMESEREARRLR [RPS28A C-terminal 12 aa]
stdout: 0.708

stdin: State its protein stability index for this sequence: DKLAKLLSLDIH [MSH3 C-terminal 12 aa]
stdout: 0.717
